Biological target: T1, FPN1-GFP (human, UniProt Q9NP59 1-571, A GFP reporter is fused to the C terminus of FPN1. Its letters are not given, so it is left out.)
T1 sequence: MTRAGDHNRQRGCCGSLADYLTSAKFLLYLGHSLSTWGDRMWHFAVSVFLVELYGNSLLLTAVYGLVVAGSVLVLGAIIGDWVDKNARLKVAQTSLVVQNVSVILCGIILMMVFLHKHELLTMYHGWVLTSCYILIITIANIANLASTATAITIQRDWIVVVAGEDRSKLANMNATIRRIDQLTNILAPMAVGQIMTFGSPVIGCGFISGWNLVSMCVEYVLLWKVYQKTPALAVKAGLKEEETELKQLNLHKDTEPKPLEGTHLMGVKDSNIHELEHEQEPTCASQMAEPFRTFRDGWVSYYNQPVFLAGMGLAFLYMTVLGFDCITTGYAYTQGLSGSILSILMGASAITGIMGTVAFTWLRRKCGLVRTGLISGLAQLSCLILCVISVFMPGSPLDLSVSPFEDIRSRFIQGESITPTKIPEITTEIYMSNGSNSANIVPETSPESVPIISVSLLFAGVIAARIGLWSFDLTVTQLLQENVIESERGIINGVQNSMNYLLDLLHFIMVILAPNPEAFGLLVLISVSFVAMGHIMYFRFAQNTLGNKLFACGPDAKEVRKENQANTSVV
Test: cell-based or functional assay
ENDPOINT: Relative IC50 (nM)
The answer is to be given in nM; state only the numeric part.

As a guide, the following entries are already answered.
| BINDER | VALUE |
| --- | --- |
| Mab 34A9 (antibody, mouse IgG1, kappa, V domains shown) VH: QVQLKQSGAELVRPGTSVKVSCKASGYAFTNFLIEWLKQRPGQGLEWIGTINPETGGTKYNEKFRGKATLTADKSSSTAYMQLNSLTSDDSAVYFCVREFFDYWGQGTSLTVSS VL: ETTVTQSPSYLAASPGETITINCRASKSISKYLAWFQEKPGKTNKLLIYAGSTLHSGIPSRFSGSGSGTDFTLTISSLEPEDFAMYYCQQHNEYPYTFGGGTKLELKR | 58.9 |
| Mab Combi11 (antibody, human IgG4 S228P, kappa, F234A L235A, V domains shown) VH: QVQLVQSGAEVKKPGSSVKVSCKASGYAFTSFLIEWVRQAPGQGLEWMGTSNPRTGRTKYKSKFRGRVTITADKSTSTAYMELSSLRSEDTAVYYCAREFFDYWGQGTTVTVSS VL: DIQMTQSPSSLSASVGDRVTITCRASKSISKYTAWYQQKPGKAPKLLIYAGSKRHWGVPSRFSGSGSGTDFTLTISSLQPEDFATYYCQQHNEYPYTFGGGTKVEIKR | 3.7 |
| Mab 3D8 (antibody, human IgG4 S228P, kappa, F234A L235A, V domains shown) VH: QVQLVQSGAEVKKPGSSVKVSCKASGYAFTSFLIEWVRQAPGQGLEWMGTSNPRTGGTKYKEKFRGRVTITADKSTSTAYMELSSLRSEDTAVYYCAREFFDYWGQGTTVTVSS VL: DIQMTQSPSSLSASVGDRVTITCRASKSISKYTAWYQQKPGKAPKLLIYAGSKLHSGVPSRFSGSGSGTDFTLTISSLQPEDFATYYCQQHNEYPYTFGGGTKVEIKR | 10.2 |

Next:
[in] Quick one: Relative IC50 of Mab L2.2-4 (antibody, human IgG4 S228P, kappa, F234A L235A, V domains shown) VH: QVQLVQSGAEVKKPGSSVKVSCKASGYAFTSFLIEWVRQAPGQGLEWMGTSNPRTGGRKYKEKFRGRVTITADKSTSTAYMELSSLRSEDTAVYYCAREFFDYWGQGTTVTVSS VL: DIQMTQSPSSLSASVGDRVTITCRASKSISKYTAWYQQKPGKAPKLLIYAGSKLRSGVPSRFSGSGSGTDFTLTISSLQPEDFATYYCQQHNEYPYTFGGGTKVEIKR ?
[out] 4.8
